Item-by-item account of self-cleavage
B1: CPEB3 Ribozyme (parent)
chain: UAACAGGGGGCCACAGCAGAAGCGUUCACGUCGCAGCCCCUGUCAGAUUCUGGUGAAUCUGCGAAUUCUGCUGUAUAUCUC

variants of: B1; experiment: self-cleavage, relative activity (ratio to wild type); higher = more cleavage; in vitro, sequencing
Enter a number only.

Data request: Record request: self-cleavage value, item C12A U69A
Data returned: 0.7

Data request: Record request: self-cleavage value, item U25C U54G
Data returned: 0.31

Data request: Record request: self-cleavage value, item G53A G70U
Data returned: 0.44

Data request: Record request: self-cleavage value, item A21G C38U
Data returned: 0.57

Data request: Record request: self-cleavage value, item G7A U80A
Data returned: 0.25

Data request: Record request: self-cleavage value, item U1C C12U
Data returned: 1.22

Data request: Record request: self-cleavage value, item C17G A75U
Data returned: 0.52

Data request: Record request: self-cleavage value, item G61A U78C
Data returned: 0.62

Data request: Record request: self-cleavage value, item A35G A75C
Data returned: 1.25

Data request: Record request: self-cleavage value, item C50A C71U
Data returned: 0.55

Data request: Record request: self-cleavage value, item A28C U51G
Data returned: 0.38
